// provenance: ChEMBL document CHEMBL1141022

# Test System: Cannabinoid receptor 1 (Homo sapiens)
# Sequence (P21554 whole entry): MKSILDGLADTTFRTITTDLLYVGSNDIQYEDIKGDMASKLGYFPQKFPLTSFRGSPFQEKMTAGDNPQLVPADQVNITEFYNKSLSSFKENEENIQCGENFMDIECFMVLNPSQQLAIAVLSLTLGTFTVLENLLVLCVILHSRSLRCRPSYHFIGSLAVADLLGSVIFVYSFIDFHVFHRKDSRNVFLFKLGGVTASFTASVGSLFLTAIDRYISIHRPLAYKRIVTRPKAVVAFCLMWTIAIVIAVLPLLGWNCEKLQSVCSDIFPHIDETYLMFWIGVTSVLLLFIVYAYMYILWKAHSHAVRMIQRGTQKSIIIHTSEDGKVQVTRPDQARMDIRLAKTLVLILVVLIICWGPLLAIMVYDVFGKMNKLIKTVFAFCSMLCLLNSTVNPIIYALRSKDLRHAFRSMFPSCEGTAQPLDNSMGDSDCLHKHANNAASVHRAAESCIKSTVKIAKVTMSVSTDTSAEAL
# Procedure Details: Displacement of [3H]CP-55940 from human CB1 receptor expressed in HEK293 cells at 10 uM
# Type: cell-based
Consider the following compounds; for each one, report its inhibition.
# output: bare number, implied unit %

Give the measured inhibition of O=C(NC1CCCCC1)n1nc(-c2ccc(Cl)cc2Cl)c(-c2ccc(Cl)cc2Cl)n1 .
29.2

Fill in: inhibition of O=C(NC1CCCCC1)n1nc(-c2ccc(Cl)cc2)c(-c2ccc(Cl)cc2Cl)n1 is ___
30.5

Fill in: inhibition of CCCCOC(=O)Cn1nnc(-c2ccc(Cl)cc2Cl)c1-c1ccc(Cl)cc1Cl is ___
46.1

May I ask what inhibition has been recorded for O=C(NCc1ccccc1)n1nc(-c2ccc(Cl)cc2Cl)c(-c2ccc(Cl)cc2Cl)n1 ?
23.8

Find the recorded inhibition belonging to O=C(Cn1nc(-c2ccc(Cl)cc2Cl)c(-c2ccc(Cl)cc2Cl)n1)Oc1ccccc1 and report it.
14.3

Which inhibition value is on record for O=C(NC12CC3CC(CC(C3)C1)C2)n1nc(-c2ccc(Cl)cc2)c(-c2ccc(Cl)cc2)n1 ?
19.7

Would you mind telling me what inhibition value was observed for O=C(Cn1nnc(-c2ccc(Cl)cc2Cl)c1-c1ccc(Cl)cc1Cl)N1CCCCC1 ?
55.7

Looking for the measured inhibition of O=C(Cn1nnc(-c2ccc(Cl)cc2)c1-c1ccc(Cl)cc1)N1CCCCC1 , can you help?
33

Report inhibition for CCCCOC(=O)Cn1nnc(-c2ccc(Cl)cc2)c1-c1ccc(Cl)cc1 please.
64.1

What does the data say about its inhibition? Entry: O=C(NCc1ccccc1)n1nc(-c2ccc(Cl)cc2)c(-c2ccc(Cl)cc2Cl)n1
18.6

Using the record for O=C(NC12CC3CC(CC(C3)C1)C2)n1nc(-c2ccc(Cl)cc2Cl)c(-c2ccc(Cl)cc2Cl)n1 , report its inhibition.
78.9

Which inhibition reading was recorded for the compound O=C(NC1CCCCC1)n1nc(-c2ccc(Cl)cc2)c(-c2ccc(Cl)cc2)n1 ?
19.9

Dear colleague, I am looking for the recorded inhibition of the following compound: O=C(NC12CC3CC(CC(C3)C1)C2)n1nc(-c2ccc(Cl)cc2)c(-c2ccc(Cl)cc2Cl)n1
34.5
